I'd be grateful if you could share measured pIC50 for these entries.
System: PFSK-1;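 also: cell viability assay measuring how strongly compounds suppress growth of human PFSK-1 cells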
MEASUREMENT_PROTOCOL: cells
Type: functional, cell-based, Homo sapiens
TEST_CONTEXT: Homo sapiens, PFSK-1
Description: SANGER: Inhibition of human PFSK-1 cell growth in a cell viability assay.
pIC50: −log10 of the molar value.

Exam item: Would you kindly share the measured pIC50 for CC(C)CCN1c2nc(Nc3cc(F)c(O)c(F)c3)ncc2N(C)C(=O)C1C (stereo not drawn) ?
Marked response: < 5.30

Exam item: Next molecule up: C=C(c1ccc(C(=O)O)cc1)c1cc2c(cc1C)C(C)(C)CCC2(C)C [BEXAROTENE]
Marked response: < 5.10

Exam item: Next molecule up: `N#Cc1c(O)c2c(-c3ccc(-c4ccccc4O)cc3)csc2[nH]c1=O`
Marked response: < 5.99

* * *

System: GP5d
MEASUREMENT_PROTOCOL: cells
Format: functional, cell-based, Homo sapiens
TEST_CONTEXT: Homo sapiens, GP5d
Description: SANGER: Inhibition of human GP5d cell growth in a cell viability assay.
pIC50: −log10 of the molar value. Structures can show the parent of a compound that is named as a salt.
MEASUREMENT_KIND: pIC50

Exam item: Param readout= pIC50; system= GP5d; entry= `COc1cccc2c1C(=O)c1c(O)c3c(c(O)c1C2=O)C[C@@](O)(C(=O)CO)C[C@@H]3O[C@H]1C[C@H](N)[C@H](O)[C@H](C)O1` ; returns value.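 Also: growth inhibition of human GP5d cells, read out with a cell viability assay.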
Marked response: 7.31

Exam item: Next compound up: `O=C(O)c1ccc(-c2c[nH]c3ncc(-c4ccccc4)cc23)cc1C1CCCC1`
Marked response: < 4.80

Exam item: Next compound up: COC1=CC(c2cc3ccccc3[nH]2)=N/C1=C\c1[nH]c(C)cc1C [OBATOCLAX MESYLATE]
Marked response: 6.65

Exam item: Next compound up: Nc1cccc2c1CN(C1CCC(=O)NC1=O)C2=O (configuration not stated) [LENALIDOMIDE]
Marked response: < 5.30

Exam item: Next compound up: `Cn1cnc2c(F)c(Nc3ccc(Br)cc3Cl)c(C(=O)NOCCO)cc21`
Marked response: < 5.40

Exam item: Next compound up: CC(C)CCN1c2nc(Nc3cc(F)c(O)c(F)c3)ncc2N(C)C(=O)C1C (configuration not stated)
Marked response: < 5.30

Exam item: Next compound up: `N#Cc1c(O)c2c(-c3ccc(-c4ccccc4O)cc3)csc2[nH]c1=O`
Marked response: < 5.99

Exam item: Next compound up: `Nc1ccn([C@@H]2O[C@H](CO)[C@@H](O)C2(F)F)c(=O)n1`
Marked response: 7.54

Exam item: Next compound up: `Oc1ccc2ccccc2c1SSc1c(O)ccc2ccccc12`
Marked response: < 4.49

Exam item: Next compound up: `Cc1cc([N+](=O)[O-])ccc1NS(=O)(=O)c1cc(Cl)ccc1Cl`
Marked response: 5.94

Exam item: Next compound up: `CO[C@H]1C[C@@H]2CC[C@@H](C)[C@@](O)(O2)C(=O)C(=O)N2CCCC[C@H]2C(=O)O[C@H]([C@H](C)C[C@@H]2CC[C@@H](OC(=O)C(C)(CO)CO)[C@H](OC)C2)CC(=O)[C@H](C)/C=C(\C)[C@@H](O)[C@@H](OC)C(=O)[C@H](C)C[C@H](C)/C=C/C=C/C=C/1C`
Marked response: < 6.70

Exam item: Next compound up: `CS(=O)(=O)c1ccc(C(=O)Nc2ccc(Cl)c(-c3ccccn3)c2)c(Cl)c1`
Marked response: < 5.00
